Source: ChEMBL document CHEMBL3351574

- procedureSummary: in vitro
- measurementContext: human, MT4 cells
- Description: Selectivity index, ratio of CC50 for human MT4 cells to MIC for Mycobacterium tuberculosis H37Rv
parameterMeasured: selectivity ratio
Answer with the value's number alone.

Ask | Quick one: selectivity ratio of Clc1ccc(Nc2cc3nc4ccccc4n(-c4ccc(Cl)cc4)c-3c/c2=N/CC[C@H]2CCCN3CCCC[C@H]23)cc1 ?
Reply | 2.14

Ask | Quick one: selectivity ratio of Clc1ccc(Nc2cc3nc4ccccc4n(-c4ccc(Cl)cc4)c-3c/c2=N/C[C@@H]2CCCN3CCCC[C@H]23)cc1 ?
Reply | 5.23

Ask | Quick one: selectivity ratio of c1ccc(Nc2cc3nc4ccccc4n(-c4ccccc4)c-3c/c2=N/CCC[C@H]2CCCN3CCCC[C@H]23)cc1 ?
Reply | 0.78

====

- procedureSummary: Cytotoxicity against human MT4 cells assessed as reduction in cell viability after 96 hrs by MTT method
- Assay type: cell-based
parameterMeasured: CC50 at 96 h (nM)
Number only, in nM; omit the unit.

Ask | Quick one: CC50 at 96 h of c1ccc(Nc2cc3nc4ccccc4n(-c4ccccc4)c-3c/c2=N/CCC[C@@H]2CCCN3CCCC[C@H]23)cc1 ?
Reply | 1600

Ask | Quick one: CC50 at 96 h of Clc1ccc(Nc2cc3nc4ccccc4n(-c4ccc(Cl)cc4)c-3c/c2=N/CC[C@H]2CCCN3CCCC[C@H]23)cc1 ?
Reply | 1800

Ask | Quick one: CC50 at 96 h of Clc1ccc(Nc2cc3nc4ccccc4n(-c4ccc(Cl)cc4)c-3c/c2=N/CCC[C@H]2CCCN3CCCC[C@H]23)cc1 ?
Reply | 1500

Ask | Quick one: CC50 at 96 h of Clc1ccc(Nc2cc3nc4ccccc4n(-c4ccc(Cl)cc4)c-3c/c2=N/C[C@@H]2CCCN3CCCC[C@H]23)cc1 ?
Reply | 4500

Ask | Quick one: CC50 at 96 h of c1ccc(Nc2cc3nc4ccccc4n(-c4ccccc4)c-3c/c2=N/CCC[C@H]2CCCN3CCCC[C@H]23)cc1 ?
Reply | 5800

Ask | Quick one: CC50 at 96 h of Clc1ccc(Nc2cc3nc4ccccc4n(-c4ccc(Cl)cc4)c-3c/c2=N/CC[C@@H]2CCCN3CCCC[C@H]23)cc1 ?
Reply | 1200

Ask | Quick one: CC50 at 96 h of CC(C)/N=c1\cc2n(-c3ccc(Cl)cc3)c3ccccc3nc-2cc1Nc1ccc(Cl)cc1 [CLOFAZIMINE] ?
Reply | 6800

====

- procedureSummary: in vitro
- measurementContext: human, HMEC1 cells
- Description: Selectivity index, ratio of CC50 for human HMEC1 cells to MIC for Mycobacterium tuberculosis H37Rv
parameterMeasured: selectivity ratio
Answer with the value's number alone.

Ask | Quick one: selectivity ratio of Clc1ccc(Nc2cc3nc4ccccc4n(-c4ccc(Cl)cc4)c-3c/c2=N/CCC[C@H]2CCCN3CCCC[C@H]23)cc1 ?
Reply | 3.78

Ask | Quick one: selectivity ratio of Clc1ccc(Nc2cc3nc4ccccc4n(-c4ccc(Cl)cc4)c-3c/c2=N/C[C@@H]2CCCN3CCCC[C@H]23)cc1 ?
Reply | 5.46

Ask | Quick one: selectivity ratio of CC(C)/N=c1\cc2n(-c3ccc(Cl)cc3)c3ccccc3nc-2cc1Nc1ccc(Cl)cc1 [CLOFAZIMINE] ?
Reply | 17.6

Ask | Quick one: selectivity ratio of c1ccc(Nc2cc3nc4ccccc4n(-c4ccccc4)c-3c/c2=N/CCC[C@@H]2CCCN3CCCC[C@H]23)cc1 ?
Reply | 1.12

Ask | Quick one: selectivity ratio of c1ccc(Nc2cc3nc4ccccc4n(-c4ccccc4)c-3c/c2=N/CCC[C@H]2CCCN3CCCC[C@H]23)cc1 ?
Reply | 0.74

====

- procedureSummary: Cytotoxicity against african green monkey Vero 76 cells assessed as reduction in cell viability after 48 to 96 hrs by MTT method
- Assay type: cell-based
- measurementContext: chlorocebus sabaeus
Kindly state CC50 for each of the entries shown.
Number only, in µM; omit the unit.

Ask | Quick one: CC50 of Clc1ccc(Nc2cc3nc4ccccc4n(-c4ccc(Cl)cc4)c-3c/c2=N/CCC[C@H]2CCCN3CCCC[C@H]23)cc1 ?
Reply | 9

Ask | Quick one: CC50 of Clc1ccc(Nc2cc3nc4ccccc4n(-c4ccc(Cl)cc4)c-3c/c2=N/CC[C@@H]2CCCN3CCCC[C@H]23)cc1 ?
Reply | 9

Ask | Quick one: CC50 of Clc1ccc(Nc2cc3nc4ccccc4n(-c4ccc(Cl)cc4)c-3c/c2=N/C[C@@H]2CCCN3CCCC[C@H]23)cc1 ?
Reply | 68

Ask | Quick one: CC50 of Clc1ccc(Nc2cc3nc4ccccc4n(-c4ccc(Cl)cc4)c-3c/c2=N/CC[C@H]2CCCN3CCCC[C@H]23)cc1 ?
Reply | 9.5

Ask | Quick one: CC50 of c1ccc(Nc2cc3nc4ccccc4n(-c4ccccc4)c-3c/c2=N/CCC[C@H]2CCCN3CCCC[C@H]23)cc1 ?
Reply | 9.6

Ask | Quick one: CC50 of c1ccc(Nc2cc3nc4ccccc4n(-c4ccccc4)c-3c/c2=N/CCC[C@@H]2CCCN3CCCC[C@H]23)cc1 ?
Reply | 36

====

- procedureSummary: in vitro
- measurementContext: monkey, Vero 76 cells
- Description: Selectivity index, ratio of CC50 for african green monkey Vero 76 cells to MIC for Mycobacterium tuberculosis H37Rv
parameterMeasured: selectivity ratio
Answer with the value's number alone.

Ask | Quick one: selectivity ratio of Clc1ccc(Nc2cc3nc4ccccc4n(-c4ccc(Cl)cc4)c-3c/c2=N/C[C@@H]2CCCN3CCCC[C@H]23)cc1 ?
Reply | 79.1

Ask | Quick one: selectivity ratio of Clc1ccc(Nc2cc3nc4ccccc4n(-c4ccc(Cl)cc4)c-3c/c2=N/CCC[C@H]2CCCN3CCCC[C@H]23)cc1 ?
Reply | 11

Ask | Quick one: selectivity ratio of c1ccc(Nc2cc3nc4ccccc4n(-c4ccccc4)c-3c/c2=N/CCC[C@@H]2CCCN3CCCC[C@H]23)cc1 ?
Reply | 4.88

====

Kindly state log10 CC50 at 72 h for each of the entries shown.
- procedureSummary: Cytotoxicity against human HMEC1 cells assessed as reduction in cell viability after 72 hrs by MTT method
- Type: cell-based, HMEC-1
Please keep in mind that the values are log10 of CC50 at 72 h expressed in µM.

Ask | Quick one: log10 CC50 at 72 h of Clc1ccc(Nc2cc3nc4ccccc4n(-c4ccc(Cl)cc4)c-3c/c2=N/CCC[C@H]2CCCN3CCCC[C@H]23)cc1 ?
Reply | 0.49

Ask | Quick one: log10 CC50 at 72 h of c1ccc(Nc2cc3nc4ccccc4n(-c4ccccc4)c-3c/c2=N/CCC23CCCN2CCC3)cc1 ?
Reply | 0.51

Ask | Quick one: log10 CC50 at 72 h of Clc1ccc(Nc2cc3nc4ccccc4n(-c4ccc(Cl)cc4)c-3c/c2=N/CC[C@@H]2CCCN3CCCC[C@H]23)cc1 ?
Reply | 0.40

Ask | Quick one: log10 CC50 at 72 h of Clc1ccc(Nc2cc3nc4ccccc4n(-c4ccc(Cl)cc4)c-3c/c2=N/CC[C@H]2CCCN3CCCC[C@H]23)cc1 ?
Reply | 0.36

Ask | Quick one: log10 CC50 at 72 h of Clc1ccc(Nc2cc3nc4ccccc4n(-c4ccc(Cl)cc4)c-3c/c2=N/CCC23CCCN2CCC3)cc1 ?
Reply | 0.18

Ask | Quick one: log10 CC50 at 72 h of Clc1ccc(Nc2cc3nc4ccccc4n(-c4ccc(Cl)cc4)c-3c/c2=N/C[C@@H]2CCCN3CCCC[C@H]23)cc1 ?
Reply | 0.67

Ask | Quick one: log10 CC50 at 72 h of c1ccc(Nc2cc3nc4ccccc4n(-c4ccccc4)c-3c/c2=N/CCC[C@H]2CCCN3CCCC[C@H]23)cc1 ?
Reply | 0.74

Ask | Quick one: log10 CC50 at 72 h of Cc1ccc(Nc2cc3nc4ccccc4n(-c4ccc(C)cc4)c-3c/c2=N/C[C@@H]2CCCN3CCCC[C@H]23)cc1 ?
Reply | 0.41

Ask | Quick one: log10 CC50 at 72 h of c1ccc(Nc2cc3nc4ccccc4n(-c4ccccc4)c-3c/c2=N/CCC[C@@H]2CCCN3CCCC[C@H]23)cc1 ?
Reply | 0.92

Ask | Quick one: log10 CC50 at 72 h of CC(C)/N=c1\cc2n(-c3ccc(Cl)cc3)c3ccccc3nc-2cc1Nc1ccc(Cl)cc1 ?
Reply | 1.27

====

- Test system: Mycobacterium tuberculosis
- procedureSummary: microbe, parasite or virus in culture
- measurementContext: isolate 439/11, 168 h
- Description: Antitubercular activity against Mycobacterium tuberculosis isolate 439/11 after 7 days by REMA resazurin microtiter assay
Structures can show the parent of a compound that is named as a salt.
Kindly state log10 MIC for each of the entries shown.
Please keep in mind that the values are log10 of MIC expressed in µM.

Ask | Quick one: log10 MIC of CC(C)/N=c1\cc2n(-c3ccc(Cl)cc3)c3ccccc3nc-2cc1Nc1ccc(Cl)cc1 ?
Reply | 0.03

Ask | Quick one: log10 MIC of Clc1ccc(Nc2cc3nc4ccccc4n(-c4ccc(Cl)cc4)c-3c/c2=N/CCC[C@H]2CCCN3CCCC[C@H]23)cc1 ?
Reply | -0.09

Ask | Quick one: log10 MIC of Clc1ccc(Nc2cc3nc4ccccc4n(-c4ccc(Cl)cc4)c-3c/c2=N/CC[C@@H]2CCCN3CCCC[C@H]23)cc1 ?
Reply | -0.08

Ask | Quick one: log10 MIC of CC[C@@H](CO)NCCN[C@@H](CC)CO ?
Reply | 0.26

Ask | Quick one: log10 MIC of CN[C@@H]1[C@H](O[C@H]2[C@H](O[C@H]3[C@H](O)[C@@H](O)[C@H](N=C(N)N)[C@@H](O)[C@@H]3N=C(N)N)O[C@@H](C)[C@]2(O)C=O)O[C@@H](CO)[C@H](O)[C@H]1O [STREPTOMYCIN SULFATE] ?
Reply | -0.77

Ask | Quick one: log10 MIC of NNC(=O)c1ccncc1 ?
Reply | 0.26

Ask | Quick one: log10 MIC of Cl.Clc1ccc(Nc2cc3nc4ccccc4n(-c4ccc(Cl)cc4)c-3c/c2=N/CCC23CCCN2CCC3)cc1 ?
Reply | 0.80
